assay: Pharmacokinetic study in rats (plasma LC-MS/MS) after iv or oral VOC, oral VOC-P188 or oral VOC-β-CD
Type: in vivo, Sprague Dawley rats
runParameters: VOC iv 30 mg/kg, rat plasma, n = 6
experimentalEndpoint: t1/2α (min)
Give bare numbers, in min.

Specify reported t1/2α for the compound shown: CCCC[C@@H]1OC(=O)C2=CCCC[C@H]21 [NOL, Neocnidilide]
2.4

# per-item lookup of t1/2α; items listed below
1. CCCC[C@@H]1OC(=O)c2ccccc21 [NBP, N-butylphthalide, reference compound]
2. CCCCC1OC(=O)C2=C1CCC=C2 (centres unmarked) [SA, senkyunolide A]
3. CCC/C=C1\OC(=O)C2=C1CCC=C2 [ZL, Z-ligustilide]
4. CCC/C=C1\OC(=O)c2ccccc21 [BP]

[3.6, 5.4, 2.4, 2.4]

###

assay: Pharmacokinetic study in rats (plasma LC-MS/MS) after iv or oral VOC, oral VOC-P188 or oral VOC-β-CD
Format: in vivo, Sprague Dawley rats
runParameters: VOC-β-CD inclusion compound po vs VOC po, rats
Provide the reported F2 (relative bioavailability) of each item.
Answers are plain numbers, in %.

Consider the reported F2 (relative bioavailability) for these compounds:
Specify reported F2 (relative bioavailability) for the compound shown: CCC/C=C1\OC(=O)c2ccccc21 [BP]
363.55

Specify reported F2 (relative bioavailability) for the compound shown: CCC/C=C1\OC(=O)C2=C1CCC=C2 [ZL, Z-ligustilide]
224.54

Specify reported F2 (relative bioavailability) for the compound shown: CCCC[C@@H]1OC(=O)c2ccccc21 [NBP, N-butylphthalide, reference compound]
198.39

Specify reported F2 (relative bioavailability) for the compound shown: CCCC[C@@H]1OC(=O)C2=CCCC[C@H]21 [NOL, Neocnidilide]
218.01

Let us examine a further case.
Specify reported F2 (relative bioavailability) for the compound shown: CCCCC1OC(=O)C2=C1CCC=C2 (centres unmarked) [SA, senkyunolide A]
138.69

###

assay: Pharmacokinetic study in rats (plasma LC-MS/MS) after iv or oral VOC, oral VOC-P188 or oral VOC-β-CD
Assay type: in vivo, Sprague Dawley rats
runParameters: male, Sprague-Dawley, rat, plasma, po, 120 mg/kg, VOC po 120 mg/kg, rat plasma, n = 6
Experimental: The intravenous injection solution was prepared by dissolving 0.15 g of VOC in 25 ml water containing 3 ml 10% Tween-80 as solubilizer. […] The plasma SA, NBP, NOL, ZL and BP concentrations were evaluated using the equation from the standard curves that were run with each batch of samples. The plasma concentration-time data were analyzed with the Drug and Statistics 2.0 software package to determine the pharmacokinetic parameters. […]
experimentalEndpoint: Cmax (ng/mL)
Give bare numbers, in ng/mL.

Specify reported Cmax for the molecule shown: CCCCC1OC(=O)C2=C1CCC=C2 (centres unmarked) [SA, senkyunolide A]
631

# per-item lookup of Cmax; items listed below
1. CCCC[C@@H]1OC(=O)C2=CCCC[C@H]21 [NOL, Neocnidilide]
2. CCC/C=C1\OC(=O)C2=C1CCC=C2 [ZL, Z-ligustilide]
3. CCC/C=C1\OC(=O)c2ccccc21

223
214
43.7

Specify reported Cmax for the molecule shown: CCCC[C@@H]1OC(=O)c2ccccc21 [NBP, N-butylphthalide, reference compound]
25.9

###

Provide the reported half-life of each item.
assay: Pharmacokinetic study in rats (plasma LC-MS/MS) after iv or oral VOC, oral VOC-P188 or oral VOC-β-CD
Type: in vivo, Sprague Dawley rats
runParameters: male, Sprague-Dawley, rat, plasma, po, VOC-P188 solid dispersion po, rat plasma, n = 6; read-out: t1/2β (converted)
Give bare numbers, in h.

Consider the reported half-life for these molecules:
Specify reported half-life for the molecule shown: CCCC[C@@H]1OC(=O)C2=CCCC[C@H]21 [NOL, Neocnidilide]
8.84

Specify reported half-life for the molecule shown: CCC/C=C1\OC(=O)C2=C1CCC=C2 [ZL, Z-ligustilide]
8.91

Specify reported half-life for the molecule shown: `CCC/C=C1\OC(=O)c2ccccc21`
8.64

Specify reported half-life for the molecule shown: CCCC[C@@H]1OC(=O)c2ccccc21 [NBP, N-butylphthalide, reference compound]
3.13

Let us examine a further case.
Specify reported half-life for the molecule shown: CCCCC1OC(=O)C2=C1CCC=C2 (centres unmarked) [SA, senkyunolide A]
7.24

Data origin, for the record: paper PMC8063472
